- Test system: Salmonella typhimurium TA1535
- protocol_notes: Ames Salmonella/microsomal mutagenicity assay
- Assay type: cell-based
- condition_label: 20 μM; presence of S9 mix; spontaneous 67.0±6.1
value_type: Fluoroarylbichalcophene mutagenicity (revertant colonies/plate; mean ± SEM) (revertant colonies/plate)
Return type: number; implicit unit revertant colonies/plate.

QUERY: Quick one: Fluoroarylbichalcophene mutagenicity (revertant colonies/plate; mean ± SEM) for N#Cc1ccc(-c2ccc(-c3cccs3)o2)cc1F ?
RESULT: 67.7

QUERY: Another compound to look at: N#Cc1ccc(-c2ccc(-c3cccs3)s2)cc1F
RESULT: 66.7

QUERY: Another compound to look at: Cl.N=C(N)c1ccc(-c2ccc(-c3cccs3)o2)cc1F
RESULT: 67.7

QUERY: Another compound to look at: N#Cc1ccc(-c2ccc(-c3ccco3)o2)c(F)c1
RESULT: 69.7

QUERY: Another compound to look at: Cl.N=C(N)c1ccc(-c2ccc(-c3ccco3)o2)cc1F
RESULT: 65.0

QUERY: Another compound to look at: N#Cc1ccc(-c2ccc(-c3ccco3)o2)cc1F
RESULT: 71.3

QUERY: Another compound to look at: N#Cc1ccc(-c2ccc(-c3cccs3)o2)c(F)c1
RESULT: 68.7

QUERY: Another compound to look at: Cl.N=C(N)c1ccc(-c2ccc(-c3ccco3)o2)c(F)c1
RESULT: 65.7

QUERY: Another compound to look at: Cl.N=C(N)c1ccc(-c2ccc(-c3cccs3)o2)c(F)c1
RESULT: 66.0
